target: SauBCA; construct: recombinant, obtained in-house as described earlier; experiment: stopped-flow CO2 hydration assay; assay type: biochemical, Staphylococcus aureus; conditions: CO2 1.7-17 mM, 10 mM Hepes pH 7.4, 10 mM NaClO4, 15 min preincubation at room temperature; not as sodium salt
parameter: Ki
Write the numeric value and append its unit.

Just so you know, measured Ki for OB(O)c1ccccc1 [phenylboronic acid] came out at 0.008 mM

====

biological target: SauBCA; construct: recombinant, obtained in-house as described earlier; assay: stopped-flow CO2 hydration assay; assay type: biochemical, Staphylococcus aureus; conditions: CO2 1.7-17 mM, 10 mM Hepes pH 7.4, 10 mM NaClO4, 15 min preincubation at room temperature; inhibitor as sodium salt
parameter: Ki (mM)
Could you give me the number in mM? Just the number is fine.

The compound CCN(CC)C(=S)S [N,N-diethyldithiocarbamate] on SauBCA: Ki was 0.64

Item [O]=[Sn]([OH])[OH] [stannate] was tested on SauBCA; the reported Ki is 0.32

// Ki (SauBCA) for O=S(O)O [bisulphite] = 0.9

Record N#C[SeH] [selenocyanate] has SauBCA Ki equal to 5.5

Observed Ki on SauBCA, entry O=[As](O)(O)c1ccccc1 [phenylarsonic acid] , equals 0.007

src = paper PMC8168783
